This collection of values is drawn from patent US9586951B2.

Entries and their IC50 values follow.
Target: ATM (Homo sapiens, UniProt Q13315)
Construct: detecting phosphorylation of Chk2 in a human non-small cell lung cancer cell line NCI-H460 (ATCC company); host or cells: NCI-H460 human non-small cell lung cancer cells
Sequence (Q13315 whole entry): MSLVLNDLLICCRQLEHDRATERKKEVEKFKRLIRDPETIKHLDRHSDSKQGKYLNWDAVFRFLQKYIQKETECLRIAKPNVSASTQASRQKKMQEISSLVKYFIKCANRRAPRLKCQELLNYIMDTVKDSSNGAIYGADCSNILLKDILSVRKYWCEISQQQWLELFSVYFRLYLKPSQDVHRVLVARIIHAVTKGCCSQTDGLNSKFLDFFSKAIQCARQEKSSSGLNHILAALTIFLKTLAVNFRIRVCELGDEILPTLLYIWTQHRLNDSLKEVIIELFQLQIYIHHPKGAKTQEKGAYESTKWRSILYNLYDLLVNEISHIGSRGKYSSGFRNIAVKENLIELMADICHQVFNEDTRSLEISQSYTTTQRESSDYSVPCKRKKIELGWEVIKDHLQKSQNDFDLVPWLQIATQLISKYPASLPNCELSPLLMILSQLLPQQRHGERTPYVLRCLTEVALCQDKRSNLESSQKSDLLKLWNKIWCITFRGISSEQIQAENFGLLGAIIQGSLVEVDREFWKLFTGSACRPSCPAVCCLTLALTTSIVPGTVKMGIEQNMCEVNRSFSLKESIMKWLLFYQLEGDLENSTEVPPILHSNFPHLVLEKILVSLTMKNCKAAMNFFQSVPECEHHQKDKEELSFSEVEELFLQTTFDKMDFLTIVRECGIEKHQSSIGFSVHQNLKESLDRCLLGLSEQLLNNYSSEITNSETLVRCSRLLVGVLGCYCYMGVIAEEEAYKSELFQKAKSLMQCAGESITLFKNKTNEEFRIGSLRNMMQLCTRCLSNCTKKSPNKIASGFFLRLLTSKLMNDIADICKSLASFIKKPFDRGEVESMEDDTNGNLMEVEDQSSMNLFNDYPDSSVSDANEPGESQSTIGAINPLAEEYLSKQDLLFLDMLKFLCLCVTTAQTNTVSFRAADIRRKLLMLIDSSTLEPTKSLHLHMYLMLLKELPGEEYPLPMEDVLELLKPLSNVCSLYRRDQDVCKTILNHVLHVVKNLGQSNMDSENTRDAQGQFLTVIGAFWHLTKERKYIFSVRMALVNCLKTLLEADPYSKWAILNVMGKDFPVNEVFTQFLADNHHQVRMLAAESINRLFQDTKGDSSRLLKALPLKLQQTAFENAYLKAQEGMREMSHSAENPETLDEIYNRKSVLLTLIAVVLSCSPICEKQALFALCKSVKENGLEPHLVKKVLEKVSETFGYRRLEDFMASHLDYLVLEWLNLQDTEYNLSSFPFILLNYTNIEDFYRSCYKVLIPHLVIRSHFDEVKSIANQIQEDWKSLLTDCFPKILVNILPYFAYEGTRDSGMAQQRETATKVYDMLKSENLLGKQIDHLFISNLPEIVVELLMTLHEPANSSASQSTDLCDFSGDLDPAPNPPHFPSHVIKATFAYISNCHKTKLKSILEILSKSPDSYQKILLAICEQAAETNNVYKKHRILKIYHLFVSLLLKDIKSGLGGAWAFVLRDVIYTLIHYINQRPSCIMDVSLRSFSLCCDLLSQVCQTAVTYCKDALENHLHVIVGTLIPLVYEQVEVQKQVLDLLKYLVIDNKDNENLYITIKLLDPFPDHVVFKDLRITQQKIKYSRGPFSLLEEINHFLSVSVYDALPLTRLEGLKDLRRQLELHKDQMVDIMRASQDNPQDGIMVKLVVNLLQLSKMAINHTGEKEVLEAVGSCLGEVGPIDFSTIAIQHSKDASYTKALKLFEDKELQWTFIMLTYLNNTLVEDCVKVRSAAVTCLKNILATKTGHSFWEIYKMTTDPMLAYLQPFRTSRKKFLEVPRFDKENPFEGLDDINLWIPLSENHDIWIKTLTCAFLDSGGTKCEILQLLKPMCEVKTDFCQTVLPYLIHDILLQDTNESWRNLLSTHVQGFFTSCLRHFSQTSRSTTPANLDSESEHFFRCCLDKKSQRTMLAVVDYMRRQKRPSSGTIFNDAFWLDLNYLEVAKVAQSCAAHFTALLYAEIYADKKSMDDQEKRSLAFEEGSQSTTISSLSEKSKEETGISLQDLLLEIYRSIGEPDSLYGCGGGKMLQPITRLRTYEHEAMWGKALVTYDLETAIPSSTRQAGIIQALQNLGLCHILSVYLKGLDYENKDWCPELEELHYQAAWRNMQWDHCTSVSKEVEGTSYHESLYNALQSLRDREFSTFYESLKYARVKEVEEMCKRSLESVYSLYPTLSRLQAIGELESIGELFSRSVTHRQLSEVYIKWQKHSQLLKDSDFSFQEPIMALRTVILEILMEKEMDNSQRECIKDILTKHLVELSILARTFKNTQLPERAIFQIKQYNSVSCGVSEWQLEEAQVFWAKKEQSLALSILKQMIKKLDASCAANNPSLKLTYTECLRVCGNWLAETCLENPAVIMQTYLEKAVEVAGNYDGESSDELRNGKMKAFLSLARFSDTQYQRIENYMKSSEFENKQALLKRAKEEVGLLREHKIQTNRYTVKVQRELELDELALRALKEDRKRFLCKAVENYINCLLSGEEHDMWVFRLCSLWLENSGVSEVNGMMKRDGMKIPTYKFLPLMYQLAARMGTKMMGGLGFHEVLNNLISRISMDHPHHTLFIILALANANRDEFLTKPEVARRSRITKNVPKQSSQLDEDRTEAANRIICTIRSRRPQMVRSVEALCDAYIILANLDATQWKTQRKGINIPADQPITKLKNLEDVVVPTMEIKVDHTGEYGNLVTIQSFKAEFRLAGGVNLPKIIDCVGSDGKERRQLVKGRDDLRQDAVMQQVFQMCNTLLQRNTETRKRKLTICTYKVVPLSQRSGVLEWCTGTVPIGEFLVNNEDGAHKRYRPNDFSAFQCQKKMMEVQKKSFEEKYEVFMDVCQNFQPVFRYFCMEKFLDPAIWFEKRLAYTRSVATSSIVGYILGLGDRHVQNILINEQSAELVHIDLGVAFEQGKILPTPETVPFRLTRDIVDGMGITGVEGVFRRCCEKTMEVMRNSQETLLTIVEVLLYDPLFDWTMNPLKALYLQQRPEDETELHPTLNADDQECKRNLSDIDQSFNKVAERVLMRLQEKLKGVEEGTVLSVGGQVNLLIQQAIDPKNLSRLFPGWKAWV
Assay: ATM inhibition test (phosphorylation of Chk2 generated by ionizing radiation, AlphaScreen SureFire)
Format: cell-based
Conditions: phosphorylated Chk2 in NCI-H460 cells, ionizing radiation 8Gy, 1 hour after test compound treatment; read-out: ATM inhibitory activity
Protocol: ATM inhibitory effects of a test compound were measured by detecting phosphorylation of Chk2 in a human non-small cell lung cancer cell line NCI-H460 (ATCC company). The level of phosphorylated Chk2 generated by an ionizing radiation was measured using AlphaScreen SureFire (TGR Biosciences). The cells were seeded by 40000 cells per well in 96-well CellBIND® plates (Corning International Inc.), and incubated at 37° C. overnight in 5% CO2. […]

// known answers, use as guide
compound	meas_value
Cc1cccc(C(CN)Nc2ccc3c(c2)Cc2cccc(-c4cc(N5CCOCC5)cc(=O)[nH]4)c2O3)n1 (stereo not shown)	100 to 500 nM
COc1ncc(CN2CCC(Nc3ccc4c(c3)Cc3cccc(-c5cc(N6CCOCC6)cc(=O)[nH]5)c3O4)CC2)cn1	100 to 500 nM
N#Cc1ccnc(CNc2ccc3c(c2)Sc2cccc(-c4cc(N5CCOCC5)cc(=O)[nH]4)c2S3)c1	< 100 nM

For the compound Cc1nccnc1CNc1ccc2c(c1)Cc1cccc(-c3cc(N4CCOCC4)cc(=O)[nH]3)c1O2 , report IC50.
100 to 500 nM

---

Entries and their IC50 values follow.
Target: ATM (Homo sapiens, UniProt Q13315)
Construct: detecting phosphorylation of Chk2 in a human non-small cell lung cancer cell line NCI-H460 (ATCC company); host or cells: NCI-H460 human non-small cell lung cancer cells
Assay: ATM inhibition test (phosphorylation of Chk2 generated by ionizing radiation, AlphaScreen SureFire)
Format: cell-based
Conditions: phosphorylated Chk2 in NCI-H460 cells, ionizing radiation 8Gy, 1 hour after test compound treatment; read-out: ATM inhibitory activity
Method: ATM inhibitory effects of a test compound were measured by detecting phosphorylation of Chk2 in a human non-small cell lung cancer cell line NCI-H460 (ATCC company). The level of phosphorylated Chk2 generated by an ionizing radiation was measured using AlphaScreen SureFire (TGR Biosciences). The cells were seeded by 40000 cells per well in 96-well CellBIND® plates (Corning International Inc.), and incubated at 37° C. overnight in 5% CO2. […]

Check ATM (Homo sapiens, UniProt Q13315) data and give IC50 for O=c1cc(N2CCOCC2)cc(-c2cccc3c2Oc2ccc(NCC4CCN(c5ccncc5)CC4)cc2C3)[nH]1 [Example 2-21-5] .
500 to 2000 nM

Check ATM (Homo sapiens, UniProt Q13315) data and give IC50 for CC(=O)N1CCC(Nc2ccc3c(c2)Sc2cccc(-c4cc(N5CCOCC5)cc(=O)[nH]4)c2S3)CC1 [Example 1-12-115] .
100 to 500 nM

Check ATM (Homo sapiens, UniProt Q13315) data and give IC50 for CC(CN1CCN(C)CC1)Nc1ccc2c(c1)Sc1cccc(-c3cc(=O)cc(N4CCOCC4)o3)c1S2 (stereo not shown) [Example 11-4] .
100 to 500 nM

Check ATM (Homo sapiens, UniProt Q13315) data and give IC50 for CC(Nc1ccc2c(c1)Cc1cccc(-c3cc(N4CCOCC4)cc(=O)[nH]3)c1O2)c1cccs1 (stereo not shown) [Example 2-14-44] .
100 to 500 nM

Check ATM (Homo sapiens, UniProt Q13315) data and give IC50 for COc1nccc(C(C)Nc2ccc3c(c2)Sc2cccc(-c4cc(N5CCOCC5)cc(=O)[nH]4)c2S3)n1 (stereo not shown) [Example 1-12-88] .
100 to 500 nM

Check ATM (Homo sapiens, UniProt Q13315) data and give IC50 for Cc1nccnc1CNc1ccc2c(c1)Sc1cccc(-c3cc(N4CCOCC4)cc(=O)[nH]3)c1S2 [Example 1-12-61] .
100 to 500 nM

Check ATM (Homo sapiens, UniProt Q13315) data and give IC50 for CC(Nc1ccc2c(c1)Cc1cccc(-c3cc(N4CCOCC4)cc(=O)[nH]3)c1O2)c1cccc(F)n1 (single isomer, unassigned) [Example 2-14-87-1] .
< 100 nM

Check ATM (Homo sapiens, UniProt Q13315) data and give IC50 for O=c1cc(N2CCOCC2)cc(-c2cccc3c2Oc2ccc(NCc4ccc(F)nc4)cc2C3)[nH]1 [Example 2-2-11] .
< 100 nM

Check ATM (Homo sapiens, UniProt Q13315) data and give IC50 for COc1ccnc(CNc2ccc3c(c2)Cc2cccc(-c4cc(N5CCOCC5)cc(=O)[nH]4)c2O3)n1 [Example 2-13-8] .
< 100 nM

Check ATM (Homo sapiens, UniProt Q13315) data and give IC50 for O=c1cc(N2CCOCC2)cc(-c2cccc3c2Oc2ccc(NCc4ccc(N5CCOCC5)nc4)cc2C3)[nH]1 [Example 2-2-6] .
100 to 500 nM

Check ATM (Homo sapiens, UniProt Q13315) data and give IC50 for CN1CCCC(Nc2ccc3c(c2)Cc2cccc(-c4cc(N5CCOCC5)cc(=O)[nH]4)c2O3)C1 (stereo not shown) [Example 2-7-1] .
500 to 2000 nM

Check ATM (Homo sapiens, UniProt Q13315) data and give IC50 for Cc1cccc(CNc2ccc3c(c2)Sc2cccc(-c4cc(N5CCOCC5)cc(=O)[nH]4)c2S3)n1 [Example 1-12-2] .
< 100 nM

Check ATM (Homo sapiens, UniProt Q13315) data and give IC50 for COc1cc(OC)nc(CNc2ccc3c(c2)Cc2cccc(-c4cc(N5CCOCC5)cc(=O)[nH]4)c2O3)n1 [Example 2-2-51] .
< 100 nM

Check ATM (Homo sapiens, UniProt Q13315) data and give IC50 for Cc1ccnc(C(CF)Nc2ccc3c(c2)Cc2cccc(-c4cc(N5CCOCC5)cc(=O)[nH]4)c2O3)n1 (stereo not shown) [Example 2-14-81] .
100 to 500 nM

Check ATM (Homo sapiens, UniProt Q13315) data and give IC50 for Cc1cc(CNc2ccc3c(c2)Sc2cccc(-c4cc(N5CCOCC5)cc(=O)[nH]4)c2O3)ccn1 [Example 4-4-3] .
100 to 500 nM

Check ATM (Homo sapiens, UniProt Q13315) data and give IC50 for CC(C)(C)OC(=O)N1CCC(Nc2ccc3c(c2)Sc2cccc(-c4cc(N5CCOCC5)cc(=O)[nH]4)c2O3)CC1 [Example 4-8-3] .
100 to 500 nM

---

Target: ATM (Homo sapiens, UniProt Q13315)
Construct: detecting phosphorylation of Chk2 in a human non-small cell lung cancer cell line NCI-H460 (ATCC company); host or cells: NCI-H460 human non-small cell lung cancer cells
Assay: ATM inhibition test (phosphorylation of Chk2 generated by ionizing radiation, AlphaScreen SureFire)
Type: cell-based
Conditions: phosphorylated Chk2 in NCI-H460 cells, ionizing radiation 8Gy, 1 hour after test compound treatment; read-out: ATM inhibitory activity
pIC50: −log10 of the molar value.
value_kind: pIC50

molecule	pIC50
COc1cnc(C(C)Nc2ccc3c(c2)Cc2cccc(-c4cc(N5CCOCC5)cc(=O)[nH]4)c2O3)cn1 (stereo not shown) [Example 2-14-51]	> 7.00
Cc1ccc(C(Nc2ccc3c(c2)Sc2cccc(-c4cc(N5CCOCC5)cc(=O)[nH]4)c2S3)[C@@H]2CCCN2C)nc1 (single isomer, unassigned) [Example 1-56-3]	> 7.00
O=c1cc(N2CCOCC2)cc(-c2cccc3c2Oc2ccc(NC4CCN(CCc5ccccc5)CC4)cc2C3)[nH]1 [Example 2-28-29]	6.30 to 7.00
O=c1cc(N2CCOCC2)cc(-c2cccc3c2Oc2ccc(NC4CCN(CC(O)c5ccccc5)CC4)cc2C3)[nH]1 (stereo not shown) [Example 2-30-13]	6.30 to 7.00
CCN(C)c1cncc(CNc2ccc3c(c2)Cc2cccc(-c4cc(N5CCOCC5)cc(=O)[nH]4)c2O3)c1 [Example 2-21-9]	> 7.00

Here is another molecule to look at.
Check ATM (Homo sapiens, UniProt Q13315) data and give pIC50 for COc1ccc(CNc2ccc3c(c2)Sc2cccc(-c4cc(N5CCOCC5)cc(=O)[nH]4)c2S3)cn1 [Example 1-12-16] .
6.30 to 7.00

---

Entries and their pIC50 values follow.
Biological target: ATM (Homo sapiens, UniProt Q13315)
Construct: detecting phosphorylation of Chk2 in a human non-small cell lung cancer cell line NCI-H460 (ATCC company); host or cells: NCI-H460 human non-small cell lung cancer cells
Test: ATM inhibition test (phosphorylation of Chk2 generated by ionizing radiation, AlphaScreen SureFire)
Assay type: cell-based
Settings: phosphorylated Chk2 in NCI-H460 cells, ionizing radiation 8Gy, 1 hour after test compound treatment; read-out: ATM inhibitory activity
pIC50: −log10 of the molar value.

// known answers, use as guide
compound	tested_on	meas_value
CCN(C)CCC(Nc1ccc2c(c1)Sc1cccc(-c3cc(N4CCOCC4)cc(=O)[nH]3)c1S2)c1cnc(C)cn1 (single isomer, unassigned) [Example 1-51-10]	ATM (Homo sapiens, UniProt Q13315)	> 7.00
COc1cncc(CNc2ccc3c(c2)Cc2cccc(-c4cc(N5CCOCC5)cc(=O)[nH]4)c2N3C)c1	ATM (Homo sapiens, UniProt Q13315)	5.70 to 6.30

Here is another compound to look at.
For the compound O=c1cc(N2CCOCC2)cc(-c2cccc3c2Oc2ccc(NC4CCN(CCCc5ccccc5)CC4)cc2C3)[nH]1 , report pIC50.
5.70 to 6.30
